Reference source for all entries: ChEMBL document CHEMBL1151172

# Test system: Escherichia coli
# ASSAY_OVERVIEW: Antimicrobial activity against Escherichia coli ATCC 25922 by serial broth microdilution method
# Assay type: functional
Activity calls are given as the source filed them. The calls are words filed in the database; no cut-off is given here.
READOUT: Activity

Would you please look over these solved cases?
>  <STRUCTURE>
C[C@@]12CCC[C@@](C)(C(=O)O)[C@H]1C[C@@H](O)[C@@]13C[C@@H](CC[C@@H]21)[C@]1(C)O[C@@H]13

>  <Activity>
inactive

$$$$
>  <STRUCTURE>
CC(=O)O[C@H]1C[C@@H]2[C@@]3(C=C(C=O)[C@H]1C3)CC[C@H]1[C@@]2(C)CCC[C@@]1(C)C(=O)O

>  <Activity>
inactive

$$$$
>  <STRUCTURE>
COC(=O)[C@]1(C)CCC[C@@]2(C)[C@@H]3C[C@H](OC(C)=O)[C@@H]4C[C@@]3(CC[C@@H]21)[C@H]1O[C@]14C

>  <Activity>
inactive

$$$$
>  <STRUCTURE>
C=C1[C@H]2C[C@@]3(CC[C@H]4[C@@](C)(CCC[C@@]4(C)C(=O)OC)[C@@H]3C[C@@H]2OC(C)=O)[C@H]1O

>  <Activity>
inactive

$$$$
>  <STRUCTURE>
C=C1[C@H]2C[C@@]3(CC[C@H]4[C@@](C)(CCC[C@@]4(C)C(=O)O)[C@@H]3C[C@@H]2OC(C)=O)[C@H]1O

>  <Activity>
inactive

$$$$
>  <STRUCTURE>
C=C1C[C@@]23CC[C@H]4[C@@](C)(CCC[C@@]4(C)C(=O)OC)[C@@H]2C[C@H](O)[C@@H]1C3

>  <Activity>
inactive

$$$$
>  <STRUCTURE>
COC(=O)[C@]1(C)CCC[C@@]2(C)[C@@H]3C[C@H](OC(C)=O)[C@@H]4C[C@]3(C=C4C)[C@H](O)C[C@@H]21

>  <Activity>
inactive

$$$$
>  <STRUCTURE>
C=C1CC[C@@H]2[C@H]([C@H]3[C@H]1CC[C@@]3(O)CO)C2(C)C

>  <Activity>
inactive

$$$$
>  <STRUCTURE>
CC1=C[C@]23C[C@H]1CC[C@H]2[C@]1(C)CCC[C@@](C)(C(=O)O)[C@H]1C[C@H]3O

>  <Activity>
inactive

$$$$
>  <STRUCTURE>
COC(=O)[C@]1(C)CCC[C@@]2(C)[C@@H]3C[C@H](OC(C)=O)[C@@H]4C[C@]3(C=C4C=O)CC[C@@H]21

>  <Activity>
inactive

$$$$

Hey, can you go through the list below and give me Activity for every item?
1. C=C1C[C@]23C[C@H]1[C@@H](OC(C)=O)C[C@H]2[C@]1(C)CCC[C@@](C)(C(=O)O)[C@H]1C[C@H]3O
2. C=C/C(C)=C\C[C@@H]1C(=C)CC[C@@H]2C(C)(C)[C@H](O)[C@@H](O)C[C@@]12C

1. inactive
2. inactive
